target: ATP-dependent translocase ABCB1 (Homo sapiens, UniProt P08183); test: Inhibition of p-glycoprotein in Homo sapiens (human) K562/A02 cells assessed as reduction of adriamycin IC50 for cytotoxic effect at IC10 treated 12 hr before adriamycin challenge measured after 24 to 72 hr by MTT assay; assay type: cell-based
Sequence (P08183 whole entry): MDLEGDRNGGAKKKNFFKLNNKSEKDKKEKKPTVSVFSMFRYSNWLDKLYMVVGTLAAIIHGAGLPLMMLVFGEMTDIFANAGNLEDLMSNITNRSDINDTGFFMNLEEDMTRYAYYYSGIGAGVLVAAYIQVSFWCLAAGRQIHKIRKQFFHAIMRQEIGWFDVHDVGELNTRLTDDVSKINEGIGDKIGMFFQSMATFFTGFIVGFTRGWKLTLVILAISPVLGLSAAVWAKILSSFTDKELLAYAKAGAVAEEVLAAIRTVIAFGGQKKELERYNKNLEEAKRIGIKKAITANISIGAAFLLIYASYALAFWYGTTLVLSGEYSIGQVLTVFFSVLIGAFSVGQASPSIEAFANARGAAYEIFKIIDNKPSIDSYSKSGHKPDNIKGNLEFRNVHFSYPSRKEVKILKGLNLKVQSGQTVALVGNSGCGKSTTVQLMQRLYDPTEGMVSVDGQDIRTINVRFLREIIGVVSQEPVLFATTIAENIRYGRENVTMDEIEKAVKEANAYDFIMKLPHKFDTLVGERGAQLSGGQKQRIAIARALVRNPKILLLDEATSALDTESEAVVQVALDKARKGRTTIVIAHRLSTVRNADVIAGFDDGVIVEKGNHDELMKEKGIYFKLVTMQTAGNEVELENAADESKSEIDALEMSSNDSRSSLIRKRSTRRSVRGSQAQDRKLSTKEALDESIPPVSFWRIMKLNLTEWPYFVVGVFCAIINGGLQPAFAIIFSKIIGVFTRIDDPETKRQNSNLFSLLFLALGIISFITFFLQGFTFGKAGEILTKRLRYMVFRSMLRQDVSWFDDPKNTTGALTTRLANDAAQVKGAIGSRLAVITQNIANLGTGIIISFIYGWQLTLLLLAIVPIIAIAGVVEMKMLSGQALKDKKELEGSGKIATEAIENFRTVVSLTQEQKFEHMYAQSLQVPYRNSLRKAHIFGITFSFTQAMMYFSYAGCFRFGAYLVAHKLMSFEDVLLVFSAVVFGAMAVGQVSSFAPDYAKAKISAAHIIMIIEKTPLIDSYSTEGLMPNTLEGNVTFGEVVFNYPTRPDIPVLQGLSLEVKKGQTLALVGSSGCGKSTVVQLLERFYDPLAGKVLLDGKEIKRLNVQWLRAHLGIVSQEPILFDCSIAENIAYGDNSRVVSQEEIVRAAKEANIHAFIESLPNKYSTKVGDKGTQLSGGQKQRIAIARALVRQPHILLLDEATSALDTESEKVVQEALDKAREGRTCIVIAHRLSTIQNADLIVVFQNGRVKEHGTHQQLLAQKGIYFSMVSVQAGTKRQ
Catalogue of fold change (FC) readings, one per entry.
Form rule: numeric answer, no unit written next to it.

Completed entries (count: 6):
[
  {
    "smi": "CCOC(=O)CC[C@H](NC(=O)Cn1c(=O)c(C)nc2ccccc21)C(=O)OCC",
    "target entity": "ATP-dependent translocase ABCB1 (Homo sapiens, UniProt P08183)",
    "fold change (FC)": 4.13
  },
  {
    "smi": "COc1ccc(NC(=O)Cn2c(=O)c(C)nc3ccccc32)cc1OC",
    "target entity": "ATP-dependent translocase ABCB1 (Homo sapiens, UniProt P08183)",
    "fold change (FC)": 3.75
  },
  {
    "smi": "Cc1nc2ccccc2n(CC(=O)Nc2ccc(F)c(F)c2)c1=O",
    "target entity": "ATP-dependent translocase ABCB1 (Homo sapiens, UniProt P08183)",
    "fold change (FC)": 5.3
  },
  {
    "smi": "CCOC(=O)Cn1c(=O)c(C)nc2ccccc21",
    "target entity": "ATP-dependent translocase ABCB1 (Homo sapiens, UniProt P08183)",
    "fold change (FC)": 1.5
  },
  {
    "smi": "Cc1ccc(NC(=O)Cn2c(=O)c(C)nc3ccccc32)cc1",
    "target entity": "ATP-dependent translocase ABCB1 (Homo sapiens, UniProt P08183)",
    "fold change (FC)": 3.55
  },
  {
    "smi": "Cc1nc2cc(F)c(F)cc2n(CC(=O)Nc2ccccc2)c1=O",
    "target entity": "ATP-dependent translocase ABCB1 (Homo sapiens, UniProt P08183)",
    "fold change (FC)": 2.41
  }
]

If you can, please state the reported fold change (FC) value of CCOC(=O)CNC(=O)Cn1c(=O)c(C)nc2ccccc21 .
2.37

* * *

experiment: Cytotoxicity against Homo sapiens (human) K562/A02 cells after 24 to 72 hr by MTT assay; assay type: cell-based
Catalogue of IC10 readings, one per entry.
Give the value, in units of µM, as a plain number.

Completed entries (count: 3):
[
  {
    "smi": "CCOC(=O)CC[C@H](NC(=O)Cn1c(=O)c(C)nc2ccccc21)C(=O)OCC",
    "IC10 [µM]": 2.48
  },
  {
    "smi": "CCOC(=O)CNC(=O)Cn1c(=O)c(C)nc2ccccc21",
    "IC10 [µM]": 16.5
  },
  {
    "smi": "Cc1nc2ccccc2n(CC(=O)Nc2ccc(F)c(Cl)c2)c1=O",
    "IC10 [µM]": 2.91
  }
]

If you can, please state the reported IC10 value of Cc1ccc(NC(=O)Cn2c(=O)c(C)nc3ccccc32)cc1 .
1.63

If you can, please state the reported IC10 value of COc1ccc(NC(=O)Cn2c(=O)c(C)nc3ccccc32)cc1OC .
1.42

If you can, please state the reported IC10 value of COc1cc2nc(C)c(=O)n(CC(=O)Nc3ccccc3)c2cc1OC .
2.84

If you can, please state the reported IC10 value of COC(=O)[C@@H]1C[C@@H](O)CN1C(=O)Cn1c(=O)c(C)nc2ccccc21 .
2.89

If you can, please state the reported IC10 value of Cc1nc2cc(F)c(F)cc2n(CC(=O)Nc2ccccc2)c1=O .
1.52

If you can, please state the reported IC10 value of Cc1nc2ccccc2n(CC(=O)Nc2ccc(Br)cc2)c1=O .
2.7
